Each recorded value in this set is attributed to ChEMBL document CHEMBL1122035.

# Tested on: Nucleic Acid
# assay.remarks: DNA binding property and activity expressed as K
# Assay type: nucleic-acid assay
measurement.label: K (M⁻¹)

As a guide, the following entries are already answered.
CCN(CC)CCCNC(=O)c1ccc2c(c1O)C(=O)c1ccccc1C2=O : 92000
CN(C)CCCNC(=O)c1ccc2c(c1O)C(=O)c1ccccc1C2=O.Cl : 78000

I = CCN(CC)CCCC(C)NC(=O)c1ccc2c(c1O)C(=O)c1ccccc1C2=O.Cl (stereo not given)
II = CN(C)CCNC(=O)Cc1cc(O)c2c(c1O)C(=O)c1ccccc1C2=O.Cl
III = CCN(CC)CCNC(=O)c1ccc2c(c1O)C(=O)c1ccccc1C2=O
Asked: Sort (3 molecules) by K: min first. Write the labels, ordered according to the request.
Given back: III, I, II
(III: 46000 M⁻¹, I: 78000 M⁻¹, II: 289000 M⁻¹)
